Reported composite z-score is given for each of the following compounds.
- assay-overview: small-molecule microarray binders of probe aDKK1, primary screen, biochemical, biotinylated probe, 635/667 nm fluorescence (AID 1099);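 further: score merges 667nm spot fluorescence with signal to noise across triplicate slides; reference of the scale not given here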
- test-context: higher = more signal

# compound, composite z-score
measured = [
    ("COCCOC(=O)N1C(=O)[C@@]2(c3cc(C#CCC(C(=O)OC)C(=O)OC)ccc31)[C@H](C(=O)Nc1nc3ccccc3s1)[C@H]1C(=O)O[C@H](c3ccccc3)[C@H](c3ccccc3)N1[C@@H]2c1ccccc1OCCO", 0.467),
    ("O=C(NC1CC1)[C@@H]1c2ccccc2C(=O)N(Cc2ccccc2Cl)[C@H]1c1ccc(CO)cc1", 0.893),
    ("C=C(COC)C(=O)CC[C@@H](OC(C)=O)c1ccc(CO)o1", 0.0244),
    ("CC[C@@H]1C=C(C(=O)O)[C@H](c2ccc(Br)cc2)N1S(=O)(=O)c1ccc(C)cc1", 0.495),
    ("O=C(NCCO)C1=C[C@H](Oc2ccccc2I)[C@@H](O)[C@H](N(Cc2ccco2)C(=O)Cc2ccccc2)C1", -0.223),
    ("C=CCOC(=O)[C@H]1[C@@H]2C(=O)O[C@@H](c3ccccc3)[C@@H](c3ccccc3)N2[C@@H](c2ccc(OCCOC(=O)[C@@H]3C[C@@H]4C(=O)N[C@@H](CCCCNC(C)=O)C(=O)N4[C@@H]3c3ccc(O)cc3)cc2)[C@]12C(=O)Nc1ccccc12", -0.208),
    ("COCCOC(=O)N1C(=O)[C@@]2(c3cc(C#CCNC(N)=O)ccc31)[C@H](C(=O)N1CCN(c3ncccn3)CC1)[C@H]1C(=O)O[C@H](c3ccccc3)[C@H](c3ccccc3)N1[C@@H]2c1ccc(OCCO)cc1", 0.223),
    ("C=C(C)[C@@H]1CC=C(C(O)C2C=CC3C(=O)N(C)C(=O)C3N2Nc2ccccc2)CC1 (some centres undefined)", 0.344),
    ("Cc1ccc(S[C@]2(C(=O)NC3CC3)CC(=O)N(Cc3ccccc3)[C@@H]2c2ccc(CO)cc2I)cc1", 0.0491),
    ("CC1CC/C=C\\[C@H]2OC34C=CCN(C(C)(C)C)C(=O)[C@H]3N(CCO)C(=O)[C@@H]4C2C(=O)O1 (some centres undefined)", -0.404),
    ("CC(C)N1C(=O)C[C@@](C(=O)NCC(F)(F)F)(c2ccc([N+](=O)[O-])cc2)[C@H]1c1ccc(CO)cc1", -0.186),
    ("CN1C(=O)C2C=CC(C(O)c3ccccc3)N(N(c3ccccc3)c3ccccc3)C2C1=O (centres undefined)", 0.629),
    ("CC(C)[Si](C#Cc1ccc(Oc2ccccc2)cc1)(O[Si](C#Cc1ccc(Oc2ccccc2)cc1)(C(C)C)C(C)C)C(C)C", 0.112),
    ("O=C1C2C=CC(C(O)Cc3ccccc3)N(n3cnnc3)C2C(=O)N1Cc1ccccc1 (centres undefined)", 0.73),
]

Reference for the values: PubChem BioAssay
